Measured log10 IC50 accompanies every entry in the list below.
system: VZV; assay: Viral qPCR assay, VZV in MRC5 cells; format: cell-based, varicella zoster virus; details: ~72 hrs, read-out: VZV MRC5 Cell (IC50)
Heads up, the numbers here are log10 of IC50 in nM units.

Worked set:
* CC(C1CCC(=O)N1)N1Cc2c(C(=O)NCc3ccc(Cl)cc3)nn(C)c2C1 (single isomer, unassigned) [Compound 1] | 3.88
* O=C1CC[C@H](CN2Cc3c(C(=O)NCc4ccc(Cl)cc4)nn(-c4ncccn4)c3C2)N1 | 2.32
* CC([C@@H]1CCC(=O)N1)N1Cc2c(C(=O)NCc3ccc(Cl)cc3)nn(-c3nccs3)c2C1 (single isomer, unassigned) | 2.61
* CCC1c2c(c(C(=O)NCc3ccc(Cl)cc3)nn2C)CN1C[C@@H]1CCC(=O)N1 (single isomer, unassigned) | 2.02
* CC1c2c(c(C(=O)NCc3ccc(Cl)cc3)nn2C)CN1C(C)C1CCC(=O)N1 (centres unmarked) [Compound 111] | 2.60

Then there is this compound:
Task: Dear colleague, I am looking for the recorded log10 IC50 of the following compound: CCC(C1CCC(=O)N1)N1Cc2c(C(=O)NCc3ccc(Cl)cc3)nn(C)c2C1 (centres unmarked)
Result: 3.09

###

Here we list molecules with their recorded IC50 when tested on varicella zoster virus DNA polymerase (Varicella-zoster virus).
Sequence (P09252 whole entry): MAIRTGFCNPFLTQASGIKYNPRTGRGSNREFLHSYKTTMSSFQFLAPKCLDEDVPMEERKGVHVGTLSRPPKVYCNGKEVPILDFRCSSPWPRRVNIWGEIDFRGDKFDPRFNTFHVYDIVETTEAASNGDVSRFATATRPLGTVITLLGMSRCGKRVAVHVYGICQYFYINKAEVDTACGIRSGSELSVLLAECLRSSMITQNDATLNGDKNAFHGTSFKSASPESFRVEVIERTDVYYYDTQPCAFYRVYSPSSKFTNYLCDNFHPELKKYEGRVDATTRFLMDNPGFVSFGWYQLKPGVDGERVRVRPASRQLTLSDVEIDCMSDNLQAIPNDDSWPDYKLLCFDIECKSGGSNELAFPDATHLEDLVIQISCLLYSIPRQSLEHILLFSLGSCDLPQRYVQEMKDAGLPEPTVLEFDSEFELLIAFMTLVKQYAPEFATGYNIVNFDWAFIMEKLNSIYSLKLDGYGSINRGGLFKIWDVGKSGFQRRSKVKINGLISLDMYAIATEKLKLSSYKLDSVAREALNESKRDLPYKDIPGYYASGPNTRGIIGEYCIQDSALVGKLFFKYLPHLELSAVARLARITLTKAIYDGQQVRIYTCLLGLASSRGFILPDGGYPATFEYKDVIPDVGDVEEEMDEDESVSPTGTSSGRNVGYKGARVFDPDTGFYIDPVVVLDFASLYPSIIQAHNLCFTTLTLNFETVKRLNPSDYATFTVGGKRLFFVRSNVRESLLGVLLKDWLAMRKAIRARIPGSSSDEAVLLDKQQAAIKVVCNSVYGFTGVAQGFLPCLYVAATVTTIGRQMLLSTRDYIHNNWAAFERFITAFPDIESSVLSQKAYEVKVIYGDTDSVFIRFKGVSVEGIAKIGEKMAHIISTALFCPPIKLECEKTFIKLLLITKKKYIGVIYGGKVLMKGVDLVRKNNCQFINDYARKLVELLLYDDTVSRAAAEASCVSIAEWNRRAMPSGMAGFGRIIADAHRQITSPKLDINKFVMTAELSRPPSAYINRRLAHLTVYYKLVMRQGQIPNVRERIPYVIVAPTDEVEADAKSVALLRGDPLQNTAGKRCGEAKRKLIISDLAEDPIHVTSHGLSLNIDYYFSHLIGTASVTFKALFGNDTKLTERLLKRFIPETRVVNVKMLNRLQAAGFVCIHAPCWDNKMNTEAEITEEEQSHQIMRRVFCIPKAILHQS
Numbers only here, please. The scale is µM.

Example entries begin here.
• O=C1CCC(CC2Cc3c(C(=O)NCc4ccc(Cl)cc4)nn(CCN4CC(F)(F)C4)c3C2)N1 (stereo not shown) = 0.0117
• O=C1CC[C@H](CN2Cc3c(C(=O)NCc4ccc(Cl)cc4)nn(CC4CCO4)c3C2)N1 (stereo partly shown) = 0.0452
• O=C1CC[C@@H](CN2Cc3c(C(=O)NCc4ccc(Cl)cc4)nn(C4CCC(F)(F)C4)c3C2)N1 (single isomer, unassigned) = 0.0269

# context switch: different molecule, same IC50
Task: Recorded IC50 for `CC(C)C(=O)NCCn1nc(C(=O)NCc2ccc(Cl)cc2)c2c1CN(C[C@H]1CCC(=O)N1)C2` , please?
Result: 0.0115

###

Heads up, these compounds all have log10 of IC50 values measured for Human cytomegalovirus DNA polymerase (Human cytomegalovirus).
Base-10 log of IC50, unit µM.

Task: Recorded log10 of IC50 of O=C1CC[C@@H](CN2Cc3c(C(=O)NCc4ccc(Cl)cc4)nn(C4CCOC4)c3C2)N1 (single isomer, unassigned) [Compound 44] , please.
Result: -1.47

Task: Now try CC(C1CC(F)C(=O)N1)N1Cc2c(C(=O)NCc3ccc(Cl)cc3)nn(C)c2C1 (single isomer, unassigned) [Compound 73] .
Result: -1.95

Task: Follow-up entry: `CN(CCn1nc(C(=O)NCc2ccc(Cl)cc2)c2c1CN(C[C@H]1CCC(=O)N1)C2)C(=O)C1CCC1`
Result: -2.06

Task: Also check `CN(CCn1nc(C(=O)NCc2ccc(Cl)cc2)c2c1CN(Cc1ccnc(F)c1)C2)C(=O)C1CCC1`
Result: -0.95

Task: Can you check `Cn1nc(C(=O)NCc2ccc(Cl)cc2)c2c1CN(C[C@@H]1CCC(=O)N1)C2` next?
Result: -1.42

Task: Try this compound too: `O=C1CC[C@H](CN2Cc3c(C(=O)NCc4ccc(Cl)cc4)nn(CC4(F)COC4)c3C2)N1`
Result: -1.63

Task: Now try `O=C1CC[C@H](CN2Cc3c(C(=O)NCc4ccc(Cl)cc4)nn(CCn4ccc(Cl)n4)c3C2)N1` .
Result: -2.05

All figures here come from patent US20240059693A1.
